test system: Raji; test: Cytostatic activity against proliferation of Raji/0 cells (human lymphoblast Raji cells); type: functional; conditions: read-out: ID50 (the source's name)
Threshold-based label: IC50 under 30 µg/mL gives Fulfilled, IC50 not under 30 µg/mL gives Not fulfilled.

MOLECULE: O=c1[nH]c(=O)n([C@@H]2O[C@@H]3COP(=O)(O)O[C@H]3[C@H]2O)cc1I
CLASSIFICATION: Not fulfilled

MOLECULE: O=c1[nH]c(=O)n([C@@H]2O[C@H](COP(=O)(O)O)[C@@H](O)[C@H]2O)cc1Br
CLASSIFICATION: Not fulfilled

MOLECULE: O=c1[nH]c(=O)n(C2O[C@H](CO)[C@@H](O)[C@@H]2O)cc1I (some centres undefined)
CLASSIFICATION: Not fulfilled

MOLECULE: O=c1[nH]c(=O)n([C@@H]2O[C@@H]3COP(=O)(O)O[C@H]3[C@H]2O)cc1Br
CLASSIFICATION: Not fulfilled

MOLECULE: O=c1[nH]cc(F)c(=O)[nH]1
CLASSIFICATION: Fulfilled

MOLECULE: O=c1[nH]c(=O)n(C2O[C@H](COP(=O)(O)O)[C@@H](O)[C@@H]2O)cc1F (some centres undefined)
CLASSIFICATION: Fulfilled

Given the entry "O=c1[nH]cc(Br)c(=O)[nH]1" , would its reported IC50 be below 30 µg/mL?
Not fulfilled

Given the entry "O=c1[nH]c(=O)n([C@@H]2O[C@@H]3COP(=O)(O)O[C@H]3[C@H]2O)cc1F" , would its reported IC50 be below 30 µg/mL?
Fulfilled

Given the entry "O=c1[nH]c(=O)n([C@@H]2O[C@@H]3COP(=O)(O)O[C@H]3[C@H]2O)cc1Cl" , would its reported IC50 be below 30 µg/mL?
Not fulfilled

Given the entry "O=c1[nH]c(=O)n([C@@H]2O[C@H](COP(=O)(O)O)[C@@H](O)[C@H]2O)cc1I" , would its reported IC50 be below 30 µg/mL?
Not fulfilled

The reported measurements were obtained from ChEMBL document CHEMBL1123152.
